- Test system: DU-145 prostate
- testDescription: NCI tumour cell line growth inhibition, 48 h
assayReadout: GI50

CN(C)c1ccc(O)c2c1CC1CC3C(N(C)C)C(=O)C(C(N)=O)=C(O)C3(O)C(=O)C1=C2O (configuration not stated)
13.1 µM
CC(=O)O[C@H]1CC2C(C3CC[C@H](C(C)CCC(N)=O)[C@]31C)[C@H](OC(C)=O)C[C@@H]1CC3(CC[C@]21C)OOC1(CCC(C)CC1)OO3 (some centres not stated)
1.82 µM
COC(=O)c1cc2cc(-c3ccc(OC)cc3)cnc2[nH]1
2.6 µM
O=C(C(Br)C(Br)c1ccccc1)C(Br)C(Br)c1ccccc1 (configuration not stated)
1.46 µM
COc1ccc(CN2CCc3c(Sc4ccccc4)nc(N)nc3C2=O)c(OC)c1
8.57 µM
O[C@H]1C=C2[C@H](C[C@@H]1O)CN1C[C@H]2c2cc3c(cc21)OCO3
19 µM
CCN(CC)CCn1c(N)c(-c2nc3ccccc3n2C)c2nc(C#N)c(C#N)nc21
3.93 µM
CCCCCCCCCCCCCCCCNC(=O)OC(C)C
1.81 µM
Cc1nn(-c2ccccc2)c(-n2ccnc2)c1/C=N/Nc1nc(-c2ccc(Cl)c(Cl)c2)cs1
3.15 µM
O=c1ccc(N=Nc2ccccc2)ccc1Cl
15.5 µM
COc1ccc(-c2cnoc2-c2ccc(OC)cc2O)cc1
3.85 µM
N#Cc1c(-c2ccccc2)n([O-])c2ccccc2[n+]1=O
22.4 µM

----------
- System: RXF 393 renal
- testDescription: NCI tumour cell line growth inhibition, 48 h
The reader will find reported GI50 values listed item by item below.
assayReadout: GI50

COC(=O)[C@@H]1CCCN1C(=O)[C@@H]1CCCN1C(=O)[C@H](Cc1ccccc1)NC(=S)Nc1cc(C(F)(F)F)cc(C(F)(F)F)c1
2190 nM
COc1ccc2c(c1)CC[C@@H]1[C@@H]2CC[C@]2(C)C(c3ccsc3)=C(/C=C/C(=O)c3ccccc3)C[C@@H]12
> 100000 nM
COc1ccc(/C=C2\CS(=O)(=O)C/C(=C\c3ccc(OC)cc3)C2=O)cc1
1480 nM
CCC(/C=C(C)/C=C/C(=O)c1c(O)c(-c2ccc(O)cc2)c[nH]c1=O)CO (stereo not given)
5820 nM
CCCCSSC(=S)N(CC)CC
23300 nM
COC(=O)c1cc2cc(-c3ccc(OC)cc3)cnc2[nH]1
1850 nM
CCN(CCCNC(=O)Cc1cc(=O)oc2cc(N(C)C)ccc12)CCNc1ccnc2cc(Cl)ccc12
1720 nM
COc1cc(-c2cc(/C=C3\C(=O)Nc4ccc(Cl)cc43)[nH]n2)cc(OC)c1OC
9210 nM
C=CCOC1=CC(=O)c2ccccc2C1=O
2450 nM
O=C(C(Br)C(Br)c1ccccc1)C(Br)C(Br)c1ccccc1 (stereo not given)
527 nM

----------
- Tested on: CCRF-CEM leukemia
- testDescription: NCI tumour cell line growth inhibition, 48 h
Catalogue of TGI readings, one per entry.
assayReadout: TGI (µM)

COC(=O)C1CCC(=O)C(Sc2ccccc2)C1 (stereo not given)
80
CN(N=O)C(=O)N(N)CCCCC(NC(=O)OCc1ccccc1)C(=O)OCc1ccccc1 (stereo not given)
38.5
O=C(Cc1ccc(OCc2cccc(Cl)c2)cc1)NO
42.5
CCCCC/C=C/C(=O)CCc1ccc(O)c(OC)c1
3.01
COC(=O)[C@](NC(=O)OCc1ccccc1)([C@@H](C)Sc1ccc(C)cc1)C(F)(F)F
50.7
CCC(CC)COC(=O)[C@H](C)N[P@](=O)(OC[C@H]1O[C@@](C#N)(c2ccc3c(N)ncnn23)[C@H](O)[C@@H]1O)Oc1ccccc1
51.6
C=CC(O)C#Cc1cnc(OC)nc1OC (stereo not given)
47.9

----------
- Tested on: UACC-257 melanoma
- testDescription: NCI tumour cell line growth inhibition, 48 h
assayReadout: GI50

N#Cc1c(-c2ccccc2)n([O-])c2ccccc2[n+]1=O
21.4 µM
Nc1nc2cc(-c3ccc4ncc(C(=O)N5CCOCC5)n4c3)ccc2o1
7.8 µM
CCOC(=O)c1ccc(NC(=O)Nc2nccs2)cc1
11.1 µM
Cc1nn(-c2ccccc2)c(-n2ccnc2)c1/C=N/Nc1nc(-c2ccc(Cl)c(Cl)c2)cs1
17.7 µM
CC[C@@]1(O)C(=O)OCc2c1cc1n(c2=O)Cc2cc3c([N+](=O)[O-])c(OC)ccc3nc2-1
0.293 µM
COC(=O)c1c2c(c(C)[n+]([O-])c1C)C(=O)C(NCc1cccc(Cl)c1)=CC2=O
0.701 µM

----------
- Test system: HL-60(TB) leukemia
- testDescription: NCI tumour cell line growth inhibition, 48 h
Entries and their log10 of TGI
assayReadout: log10 of TGI (log10 of the value in µM)

C=C(C)[C@@H]1CC[C@]2(COC(C)=O)CC[C@]3(C)[C@H](CC[C@@H]4[C@@]5(C)CCCN(C(C)=O)C(C)(C)[C@@H]5CC[C@]43C)[C@@H]12
0.58
Cc1ccc(NS(=O)(=O)c2ccc(-c3cnc(C4CC4)o3)cc2)cc1C
0.16
N=C1N(c2ccccc2)C(=S)C(=Nc2ccccc2)N1c1ccccc1
1.04
C[C@]12CC[C@@H]3c4ccc(O)cc4CC[C@H]3[C@@H]1CC[C@@H]2OC(=O)CCC1CCCC1
1.54
O=[N+]([O-])c1cc([N+](=O)[O-])c(N2CCCC2)cc1NN=C(c1ccc(O)cc1)c1ccc(O)cc1
1.57
CCCCCCCCCCCCCCCCNC(=O)OC(C)C
0.75

----------
- Test system: ACHN renal
- testDescription: NCI tumour cell line growth inhibition, 48 h
In this section, each of the compounds is paired with its reported TGI.
assayReadout: TGI

Cc1[nH]c2ncn(Nc3ccccc3)c(=N)c2c1Cc1ccccc1
> 100 µM
CC(=O)OCC1OC(NC(=S)CCSc2nc3ccccc3c(=O)n2-c2ccccc2)C(OC(C)=O)C(OC(C)=O)C1OC(C)=O (centres undefined)
> 100 µM
COc1ccc(-c2cc3c(OC)c(OC)c(OC)cc3oc2=O)cc1
> 100 µM
CO[C@@H](C(=O)N1Cc2[nH]nc(NC(=O)c3ccc(N4CCN(C)CC4)cc3)c2C1)c1ccccc1
> 69.6 µM
CCN(CC)CCn1c(=O)c2ccccc2n2c3c(=O)n(C)c(=O)n(C)c3nc12
1.09 µM
Fc1cc(-c2cc(-c3ccccc3)n[nH]2)c(Cl)cc1Cl
> 100 µM
CO[C@]12CC(=O)C3(C(C[C@H]4CC5CCC6=CC(=O)CC[C@]6(OC(C)=O)C5C[C@@]43C)C1)C1C[C@H]3[C@@H]4CCC5=CC(=O)CC[C@]5(OC(C)=O)[C@H]4CC[C@]3(C)C12 (some centres undefined)
> 100 µM
CCCCCCCCCCCCC/C=C/[C@H]1[C@@H](C(=O)OC)N1S(=O)c1ccc(C)cc1 (some centres undefined)
> 100 µM
COC(=O)C1CCC(=O)C(Sc2ccccc2)C1 (centres undefined)
> 100 µM

----------
- Tested on: LOX IMVI melanoma
- testDescription: NCI tumour cell line growth inhibition, 48 h
Where a SMILES comes first, the peptide text is derived from it. The star is where a group is joined. CH2Cl = ClC*
Quick reference: TGI of the listed items.
assayReadout: TGI

Cc1ccc(N=NC(=O)NNc2ccc(C)c([N+](=O)[O-])c2)cc1[N+](=O)[O-]
36.7 µM
CC(=O)NC(CC(C)C)C(=O)NC(Cc1ccccc1)C(=O)CCl (stereo not drawn) (Ac-Leu-Phe-CH2Cl; configuration not given here)
10.6 µM
O=C1c2ccc3c4c(ccc(c24)C(=O)N1CCCNCc1ccccc1F)C(=O)N(CCCNCc1ccccc1F)C3=O
0.317 µM
Cc1noc(NS(=O)(=O)c2ccc(NC(=O)c3ccc4nc5ccccc5c(Nc5ccc(S(=O)(=O)Nc6onc(C)c6C)cc5)c4c3)cc2)c1C
61.3 µM
CC(C)(C)c1cc2c(O)c(c1)C(c1ccccc1)c1cc(C(C)(C)C)cc(c1O)Cc1cc(C(C)(C)C)cc(c1O)C(c1ccccc1)c1cc(C(C)(C)C)cc(c1O)C2 (configuration not stated)
> 100 µM
CC(=O)OCC1OC(OC2CCCC[Si](c3ccccc3)(c3ccccc3)O2)C(OC(C)=O)C(OC(C)=O)C1OC(C)=O (configuration not stated)
> 100 µM
O=C(Cc1ccc(OCc2cccc(Cl)c2)cc1)NO
49 µM

----------
- System: MCF7 breast
- testDescription: NCI tumour cell line growth inhibition, 48 h
assayReadout: GI50

COc1cccc(-n2ncc3c(N/N=C/c4ccc(F)cc4)ncnc32)c1
> 17 µM
COc1cc(-c2cc(/C=C3\C(=O)Nc4ccc(Cl)cc43)[nH]n2)cc(OC)c1OC
3.15 µM
COc1cc(-c2cncn2-c2ccc(-c3nc4ccc(F)cc4s3)cc2)ccc1F
23.5 µM
COc1ccc2c(c1)CC[C@@H]1[C@@H]2CC[C@]2(C)C(c3ccsc3)=C(/C=C/C(=O)c3ccccc3)C[C@@H]12
> 100 µM
CCN(CC)CCn1c(N)c(-c2nc3ccccc3n2C)c2nc(C#N)c(C#N)nc21
3.08 µM
CCSc1ccc2c(c1)N(CCCN1CCN(C)CC1)c1ccccc1S2
1.79 µM
O=CC(NC(=O)N(CCCl)N=O)C(O)C(O)C(O)CO (centres undefined)
485 µM
C=C(C)[C@@H]1CC[C@]2(COC(C)=O)CC[C@]3(C)[C@H](CC[C@@H]4[C@@]5(C)CCCN(C(C)=O)C(C)(C)[C@@H]5CC[C@]43C)[C@@H]12
1.45 µM
C/C=C(/C(=C/C)c1ccc(O)cc1)c1ccc(O)cc1
7.19 µM
